test: Plasma and brain levels (pK/pD analysis); format: in vivo, mice; details: mouse, brain, subcutaneous, Brain (ng/ml) Co. No. 2, individual mice, Co. No. 2 3 mg/kg combined with LEV 10 mg/kg; 6 Hz 44 mA
Measured property: concentration at 0.25 h (ng/mL)
Provide only the numeric value, understood in ng/mL.

Query string: Item FC(F)(F)c1c(N2CCC(c3ccccc3)CC2)ccn2c(CC3CC3)nnc12 has what recorded concentration at 0.25 h?
Result string: 1310

* * *

assay: Plasma and brain levels (pK/pD analysis); assay type: in vivo, mice; settings: mouse, plasma, subcutaneous, 20 mg/kg, 20 mg/kg s.c.; 44 mA group; read-out: Co. No. 25-a mean plasma levels
Measured property: concentration at 0.25 h (ng/mL)
Provide only the numeric value, understood in ng/mL.

Query string: Item CCCCn1ccc(N2CCC(c3ccc(F)cc3F)CC2)c(Cl)c1=O has what recorded concentration at 0.25 h?
Result string: 3370

* * *

test: Plasma and brain levels (pK/pD analysis); type: in vivo, mice; details: mouse, plasma, subcutaneous, 5 mg/kg, 5 mg/kg s.c., 0.25 h; 32 mA group; read-out: Co. No. 25-a mean plasma levels
Measured property: concentration at 0.25 h

Query string: Item CCCCn1ccc(N2CCC(c3ccc(F)cc3F)CC2)c(Cl)c1=O has what recorded concentration at 0.25 h?
Result string: 2.56 µg/mL

* * *

assay: Plasma and brain levels (pK/pD analysis); type: in vivo, mice; conditions: mouse, plasma, subcutaneous, 10 mg/kg, 10 mg/kg s.c.; 44 mA group; read-out: Co. No. 25-a mean plasma levels, statistical outlier removed
Measured property: concentration at 0.25 h (ng/mL)
Provide only the numeric value, understood in ng/mL.

Query string: Item CCCCn1ccc(N2CCC(c3ccc(F)cc3F)CC2)c(Cl)c1=O has what recorded concentration at 0.25 h?
Result string: 4340

* * *

test: Plasma and brain levels (pK/pD analysis); type: in vivo, mice; conditions: mouse, plasma, intraperitoneal, LEV 10 mg/kg combined with Co. No. 1 2.5 mg/kg; 6 Hz 44 mA; read-out: Plasma (ng/ml) LEV, individual mice
Measured property: concentration at 1 h (ng/mL)
Provide only the numeric value, understood in ng/mL.

Query string: Item CC[C@@H](C(N)=O)N1CCCC1=O [LEV, (S)-2-(2-oxopyrrolidin-1-yl) butanamide, reference compound] has what recorded concentration at 1 h?
Result string: 10300

* * *

biological target: human mGlu2 receptor (Homo sapiens); construct: expressed in transfected cells; host or cells: CHO cells; test: [35S]GTPγS binding assay, mGluR2 PAM; assay type: biochemical; details: in presence of EC20 glutamate; read-out: GTPγS-hmGluR2 PAM pEC50 (converted)
Sequence (Q14416 19-872): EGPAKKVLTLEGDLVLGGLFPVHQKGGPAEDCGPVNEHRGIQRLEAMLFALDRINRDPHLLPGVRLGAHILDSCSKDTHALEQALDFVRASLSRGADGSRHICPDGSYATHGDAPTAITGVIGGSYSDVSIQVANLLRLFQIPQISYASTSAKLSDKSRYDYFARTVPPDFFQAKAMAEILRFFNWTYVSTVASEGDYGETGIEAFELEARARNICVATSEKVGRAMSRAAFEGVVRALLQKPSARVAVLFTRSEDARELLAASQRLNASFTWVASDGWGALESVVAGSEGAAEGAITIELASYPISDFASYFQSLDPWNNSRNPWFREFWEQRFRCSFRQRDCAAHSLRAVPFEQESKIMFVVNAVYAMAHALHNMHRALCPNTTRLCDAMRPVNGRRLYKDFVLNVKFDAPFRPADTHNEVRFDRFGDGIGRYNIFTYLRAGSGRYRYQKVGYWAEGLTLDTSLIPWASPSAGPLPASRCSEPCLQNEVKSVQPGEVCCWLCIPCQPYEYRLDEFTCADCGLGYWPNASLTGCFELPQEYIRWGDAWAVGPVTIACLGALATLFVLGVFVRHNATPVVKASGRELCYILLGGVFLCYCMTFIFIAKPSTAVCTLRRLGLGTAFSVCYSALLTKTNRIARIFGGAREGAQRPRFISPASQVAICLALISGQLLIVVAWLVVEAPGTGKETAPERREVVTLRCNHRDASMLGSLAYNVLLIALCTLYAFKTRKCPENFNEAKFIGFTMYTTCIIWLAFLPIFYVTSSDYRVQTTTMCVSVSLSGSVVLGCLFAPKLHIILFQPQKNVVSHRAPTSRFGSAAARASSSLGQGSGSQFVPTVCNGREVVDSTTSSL
Lab note - cut at 0.2 µM for EC50: yes (1) if strictly below, no (0) if not.

Answered examples (7):
CCCCn1ccc(N2CCC(F)(c3ccccc3)CC2)c(Cl)c1=O [Co. No. 7-a] | no (0)
CCCCn1ccc(N2CCC3(CC2)COc2ccccc23)c(Cl)c1=O [Co. No. 33-a] | no (0)
Fc1cnc(N2CCN(Cc3ccn4c(CC5CC5)nnc4c3C(F)(F)F)CC2)c(F)c1 [Co. No. 13] | yes (1)
O=c1c(Cl)c(N2CCC(F)(c3ccccc3)CC2)ccn1CC1CC1 [Co. No. 17-a] | no (0)
Fc1ccc(N2CCN(Cc3ccn4c(CC5CC5)nnc4c3Cl)CC2)c(F)c1 [Co. No. 5] | no (0)
CC(Oc1ccc(F)cc1F)c1ccn2c(CC3CCC3)nnc2c1C(F)(F)F (single isomer, unassigned) [Co. No. 18-b] | no (0)
O=c1c(Cl)c(N2CCC(c3ccc(N4CCOCC4)cc3)CC2)ccn1CC1CC1 [Co. No. 13-a] | no (0)

Query string: Hello, is EC50 of the following molecule strictly smaller than 0.2 µM? FC(F)(F)c1c(N2CCN(c3ncccn3)CC2)ccn2c(CC3CC3)nnc12 [Co. No. 8]
Result string: yes (1)
